System: KRAS PDC multicell spheroid viability;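 note: spheroids exposed to compounds for 7 days; 100% = DMSO vehicle control viability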
Assay: Anticancer human tumor 825966-067-R-J1-PDC patient-derived colon carcinoma cell line growth inhibition [KRAS2]
Details: second compound 0.1 µM; first compound 0.01 µM; hits give low values
Catalogue of viability, T/C readings, one per entry.

{"compound": "CC(=O)OC12COC1CC(O)C1(C)C(=O)C(O)C3=C(C)C(OC(=O)C(O)C(NC(=O)OC(C)(C)C)c4ccccc4)CC(O)(C(OC(=O)c4ccccc4)C21)C3(C)C (stereo not given) + C=CC(=O)N1CCN(c2nc(=O)n(-c3c(C)ccnc3C(C)C)c3nc(-c4c(O)cccc4F)c(F)cc23)C(C)C1", "viability, T/C (%)": 33.9}
{"compound": "CC(=O)OC12COC1CC(O)C1(C)C(=O)C(O)C3=C(C)C(OC(=O)C(O)C(NC(=O)OC(C)(C)C)c4ccccc4)CC(O)(C(OC(=O)c4ccccc4)C21)C3(C)C (stereo not given) + C=CC(=O)N1CCN(c2nc(OCC3CCCN3C)nc3c2CCN(c2cccc4cccc(C)c24)C3)CC1CC#N", "viability, T/C (%)": 27}
{"compound": "CCN1CCN(Cc2ccc(Nc3ncc(F)c(-c4cc(F)c5nc(C)n(C(C)C)c5c4)n3)nc2)CC1 + C=CC(=O)N1CCN(c2nc(=O)n(-c3c(C)ccnc3C(C)C)c3nc(-c4c(O)cccc4F)c(F)cc23)C(C)C1", "viability, T/C (%)": 107}
{"compound": "CC1COCCN1c1cc(-c2ccnn2C)c2ccnc(-c3ccn[nH]3)c2n1 (stereo not given) + CC1OCC2(CCN(c3cnc(Sc4ccnc(N)c4Cl)c(N)n3)CC2)C1N", "viability, T/C (%)": 135}
{"compound": "CC(C)n1nc(-c2ccc3oc(N)nc3c2)c2c(N)ncnc21 + CC1OCC2(CCN(c3cnc(Sc4ccnc(N)c4Cl)c(N)n3)CC2)C1N", "viability, T/C (%)": 162}
{"compound": "CCN1CCN(Cc2ccc(Nc3ncc(F)c(-c4cc(F)c5nc(C)n(C(C)C)c5c4)n3)nc2)CC1 + CNCc1ccccc1-c1csc(C(C)Nc2nc(C)nc3cc(OC)c(OC)cc23)c1", "viability, T/C (%)": 99.1}
{"compound": "CC1COCCN1c1cc(-c2ccnn2C)c2ccnc(-c3ccn[nH]3)c2n1 (stereo not given) + C=CC(=O)N1CCN(c2nc(OCC3CCCN3C)nc3c2CCN(c2cccc4cccc(C)c24)C3)CC1CC#N", "viability, T/C (%)": 101}
{"compound": "CCN1CCN(Cc2ccc(Nc3ncc(F)c(-c4cc(F)c5nc(C)n(C(C)C)c5c4)n3)nc2)CC1 + CC1OCC2(CCN(c3cnc(Sc4ccnc(N)c4Cl)c(N)n3)CC2)C1N", "viability, T/C (%)": 110}
{"compound": "CC(=O)OC12COC1CC(O)C1(C)C(=O)C(O)C3=C(C)C(OC(=O)C(O)C(NC(=O)OC(C)(C)C)c4ccccc4)CC(O)(C(OC(=O)c4ccccc4)C21)C3(C)C (stereo not given) + COc1cc2nc(C)nc(NC(C)c3cc(N)cc(C(F)(F)F)c3)c2cc1OC1CCOC1", "viability, T/C (%)": 18.9}
{"compound": "Cn1ncnc1[C@H]1c2n[nH]c(=O)c3cc(F)cc(c23)N[C@@H]1c1ccc(F)cc1 + C=CC(=O)N1CCN(c2nc(=O)n(-c3c(C)ccnc3C(C)C)c3nc(-c4c(O)cccc4F)c(F)cc23)C(C)C1", "viability, T/C (%)": 89.6}
